Target: T1, Mcl-1, Q07820
T1 chain: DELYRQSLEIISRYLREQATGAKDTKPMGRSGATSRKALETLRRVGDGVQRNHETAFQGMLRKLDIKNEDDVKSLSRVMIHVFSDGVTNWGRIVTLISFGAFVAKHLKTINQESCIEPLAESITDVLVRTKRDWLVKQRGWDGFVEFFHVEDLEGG
Experiment: peptide SPOT array, c-Myc-tagged receptor at 1 uM or 100 nM, anti-c-Myc-Cy3
VALUE KIND: SPOT signal as a fraction of Bim BH3's signal on the same receptor and array

Answered cases to consult:
BINDER	READOUT NUMBER
LWAAQRYGRELRRMLDEFVDSFKKGL [BAD]	0.41
CALLGSTGERICLAGDSAGGNLCFTV [LIPE]	0.01
AKFLLYLGHSDSTWGDRMWHFAVSVF [SLC40A1]	0.03
QQMHHNAATAMAQRADMLRGLSPRES [NCOR2]	0.01
TIRNGHDSELLRSLAEELPLEQGFTI [PLCD4]	0.02

1 = SRQPRDFGDSLARGGKGFLRGVVGGV [VPS13C]
2 = QASREAGAAADRNVAQRLFENYQTQS [CCDC68]
INPUT: Could you determine which record has the numerically smaller SPOT signal as a fraction of Bim BH3's signal on the same receptor and array? Candidates: 1 and 2 Indicate which entry you chose by stating its label.
OUTPUT: 2
(2: 0.04, 1: 0.53)
